Assayed target: Human AMPK α2ß2γ1 (Homo sapiens, UniProt O43741+P54646)
Construct: The full length cDNAs of human AMPK ß2 (NM_005399.3) and human AMPK α2 (NM_006252.3); The full length cDNAs of human AMPK ß2 (NM_005399.3); 6xHis (N); made in house; host or cells: Escherichia coli BL21 CodonPlus (DE3)-RIL
Sequence (P54646 whole entry): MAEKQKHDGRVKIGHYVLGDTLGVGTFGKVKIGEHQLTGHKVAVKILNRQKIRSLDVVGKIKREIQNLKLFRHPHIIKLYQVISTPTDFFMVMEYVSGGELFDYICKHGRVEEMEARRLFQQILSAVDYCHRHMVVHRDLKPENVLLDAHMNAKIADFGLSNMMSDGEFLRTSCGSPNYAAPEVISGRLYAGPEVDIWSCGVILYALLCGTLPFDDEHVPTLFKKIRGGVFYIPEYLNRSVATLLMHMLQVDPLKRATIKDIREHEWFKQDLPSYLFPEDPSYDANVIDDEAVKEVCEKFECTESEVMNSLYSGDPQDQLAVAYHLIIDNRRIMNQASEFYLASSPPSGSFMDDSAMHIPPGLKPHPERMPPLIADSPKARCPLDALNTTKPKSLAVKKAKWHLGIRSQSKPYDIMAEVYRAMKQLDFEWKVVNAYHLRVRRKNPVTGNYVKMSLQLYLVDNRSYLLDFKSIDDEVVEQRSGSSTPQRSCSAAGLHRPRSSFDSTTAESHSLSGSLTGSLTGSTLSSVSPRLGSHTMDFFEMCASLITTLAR
Sequence (O43741 whole entry): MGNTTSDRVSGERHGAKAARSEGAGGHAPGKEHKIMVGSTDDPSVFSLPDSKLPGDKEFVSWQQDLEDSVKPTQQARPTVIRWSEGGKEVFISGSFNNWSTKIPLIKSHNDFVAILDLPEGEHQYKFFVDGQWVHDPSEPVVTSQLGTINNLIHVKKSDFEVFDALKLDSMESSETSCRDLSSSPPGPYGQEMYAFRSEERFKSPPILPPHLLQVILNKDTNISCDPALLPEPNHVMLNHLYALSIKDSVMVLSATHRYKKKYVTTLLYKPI
Sequence (P54619 whole entry partner): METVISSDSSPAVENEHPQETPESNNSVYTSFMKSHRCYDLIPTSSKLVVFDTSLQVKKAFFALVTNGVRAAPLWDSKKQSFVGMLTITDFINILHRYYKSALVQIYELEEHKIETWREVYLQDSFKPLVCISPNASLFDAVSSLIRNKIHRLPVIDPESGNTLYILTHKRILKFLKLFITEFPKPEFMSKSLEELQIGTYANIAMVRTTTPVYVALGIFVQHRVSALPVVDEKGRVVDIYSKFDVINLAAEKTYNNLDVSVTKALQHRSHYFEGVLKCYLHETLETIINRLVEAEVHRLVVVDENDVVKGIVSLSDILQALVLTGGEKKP
Protocol text: Test Example 2: activator evaluation on phosphorylated human AMPK α2ß2γ1 (mobility-shift assay, FL-Peptide 7)
Format: biochemical
Measurement parameters: human AMPK α2ß2γ1 pre-phosphorylated with CaMKK2; control without compound = 100%; read-out: Emax (maximum rate of increase in activity within the measurement range)
Assay metric: Emax (%)
Response body: numeric value in %, unit text excluded.

Lookup: Which Emax is listed for CN=S(C)(=N)c1ccc(-c2ccc(-c3nc4nc(O[C@@H]5CO[C@H](CO)C5(F)F)[nH]c4cc3F)cc2)cc1 (stereo partly shown) ?
Found: 649

Lookup: Which Emax is listed for COC(=O)NC1CC=C(c2ccc(-c3nc4nc(O[C@@H]5CO[C@H](CO)C5(F)F)[nH]c4cc3Cl)cc2)CC1 (stereo partly shown) ?
Found: 389

Lookup: Which Emax is listed for `CS(C)(=O)=Nc1ccc(-c2ccc(-c3nc4nc(O[C@@H]5CO[C@H](CO)C5(F)F)[nH]c4cc3Cl)c(F)c2)cc1` ?
Found: 609

Lookup: Which Emax is listed for `CS(C)(=O)=Nc1ccc(-c2ccc(-c3nc4nc(O[C@@H]5CO[C@H](CO)C5(F)F)[nH]c4cc3F)c(F)c2)cc1` ?
Found: 619

---

Assayed target: Human AMPK α2ß2γ1 (Homo sapiens, UniProt O43741+P54646)
Construct: The full length cDNAs of human AMPK ß2 (NM_005399.3) and human AMPK α2 (NM_006252.3); The full length cDNAs of human AMPK ß2 (NM_005399.3); 6xHis (N); made in house; host or cells: Escherichia coli BL21 CodonPlus (DE3)-RIL
Protocol text: Test Example 2: activator evaluation on phosphorylated human AMPK α2ß2γ1 (mobility-shift assay, FL-Peptide 7)
Assay type: biochemical
Measurement parameters: human AMPK α2ß2γ1 pre-phosphorylated with CaMKK2; control without compound = 100%; read-out: Emax (maximum rate of increase in activity within the measurement range)
Would you mind labelling by Emax? At or over 400% is True, under is False.

Lookup: Form field: Emax at least 400%? Entry: CS(C)(=O)=Nc1ccc(-c2ccc(-c3nc4nc(O[C@@H]5CO[C@H](CO)C5(F)F)[nH]c4cc3Cl)cc2)nc1 [Compound (I-2-4)]
Found: True

Lookup: Form field: Emax at least 400%? Entry: CS(C)(=O)=Nc1ccc(-c2ccc(-c3nc4nc(O[C@@H]5CO[C@H](CO)C5(F)F)[nH]c4cc3F)cc2)cc1 [Compound (I-1-11)]
Found: True

Lookup: Form field: Emax at least 400%? Entry: CS(C)(=O)=Nc1ccc(-c2ccc(-c3nc4nc(O[C@@H]5CO[C@H](CO)[C@H]5F)[nH]c4cc3Cl)cc2)cc1 [Compound (I-1-5)]
Found: True

Lookup: Form field: Emax at least 400%? Entry: CS(C)(=O)=NC1CC=C(c2ccc(-c3nc4nc(O[C@@H]5CO[C@H](CO)C5(F)F)[nH]c4cc3Cl)cc2)CC1 (stereo partly drawn) [Compound (I-2-9)]
Found: True

Lookup: Form field: Emax at least 400%? Entry: CC(=O)NC(C)(C)c1ccc(Oc2nc3nc(-c4ccc(-c5ccc(N=S(C)(C)=O)cc5)cc4)c(Cl)cc3[nH]2)cc1 [Compound (I-1-4)]
Found: False
